TARGET_OR_SYSTEM: human M4 muscarinic acetylcholine receptor (Homo sapiens, UniProt P08173)
ASSAY: human FLIPR-based M4 PAM assay (Ca2+ mobilization, CHO-K1 cells with human M4 receptor and Gαqi5)
CONDITION_INFO: acetylcholine at 20% of maximum response, read-out: M4 PAM IP
RECORDED_METRIC: log10(EC50) (log10 of the value in nM)
Form field - Quantity: EC50; Unit: nM; Scale: log10

- MOLECULE: "COc1ccc(OC2[C@@H]3C[C@H]2CN(c2nc4c(cc2C)C(=O)NC4)C3)cn1 (single isomer, unassigned) [Example 185A]"
  RECORDED_METRIC: "log10(EC50)"
  MEASURED_NUMBER: 3.94
- MOLECULE: "Cc1cc2c(nc1N1CCC(Oc3cnc4[nH]ccc4c3)CC1)CNC2=O"
  RECORDED_METRIC: "log10(EC50)"
  MEASURED_NUMBER: 1.90
- MOLECULE: "Cc1cc2c(nc1N1CC[C@@H](Oc3ccc4c(c3)COC4)[C@H](F)C1)[C@@H](CO)N(C)C2=O [Example 280A]"
  RECORDED_METRIC: "log10(EC50)"
  MEASURED_NUMBER: 1.15
- MOLECULE: "Cc1cc2c(nc1N1CCC(Oc3ccc4c(c3)C(=O)CO4)CC1)CNC2=O [Example 139A]"
  RECORDED_METRIC: "log10(EC50)"
  MEASURED_NUMBER: 2.80
- MOLECULE: "COc1ccc(O[C@@H]2CCN(c3nc4c(cc3C)C(=O)NC4)C[C@H]2F)cn1"
  RECORDED_METRIC: "log10(EC50)"
  MEASURED_NUMBER: 1.40

Parameter requested: log10(EC50). Apply to each item below.
1. Cc1c(N2CC[C@H](OCC3(C)CC3)[C@@H](F)C2)nc2c(c1C)C(=O)N(CCO)C2 [Example 266G]
2. COc1ncc(OC2CCN(c3nc4c(cc3C)C(=O)NC4)CC2)cn1
3. Cc1cc2c(nc1N1CC[C@@H](Oc3cccc(C#N)c3)[C@@H](F)C1)CNC2=O (relative stereo)

Result ::
1: 1.84; 2: 3.24; 3: 1.48

* * *

TARGET_OR_SYSTEM: human M4 muscarinic acetylcholine receptor (Homo sapiens, UniProt P08173)
Sequence (P08173 1-479): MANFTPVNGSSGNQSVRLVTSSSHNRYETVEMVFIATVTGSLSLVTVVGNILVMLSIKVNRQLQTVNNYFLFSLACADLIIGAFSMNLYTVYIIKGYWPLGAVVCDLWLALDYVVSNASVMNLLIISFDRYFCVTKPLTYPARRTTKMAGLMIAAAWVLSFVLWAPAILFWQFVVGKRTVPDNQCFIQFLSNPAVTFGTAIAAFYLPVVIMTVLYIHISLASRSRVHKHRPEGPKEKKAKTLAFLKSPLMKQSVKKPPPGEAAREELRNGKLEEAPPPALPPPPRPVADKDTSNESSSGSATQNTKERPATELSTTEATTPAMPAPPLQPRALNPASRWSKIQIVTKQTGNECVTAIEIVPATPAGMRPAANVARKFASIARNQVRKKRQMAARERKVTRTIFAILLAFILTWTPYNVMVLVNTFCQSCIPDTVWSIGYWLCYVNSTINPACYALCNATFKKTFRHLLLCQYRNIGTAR
ASSAY: human FLIPR-based M4 PAM assay (Ca2+ mobilization, CHO-K1 cells with human M4 receptor and Gαqi5)
CONDITION_INFO: acetylcholine at 20% of maximum response, read-out: M4 PAM IP
RECORDED_METRIC: pEC50
Numbers only, as −log10 of the molar value.

- COMPOUND: "Cc1c(N2CCC(Oc3ccc4c(c3)COCC4)CC2)nc2c(c1C)C(=O)NC2"
  MEASURED_NUMBER: 6.43

Parameter requested: pEC50. Apply to each item below.
1. Cc1c(N2CCC(Oc3ccc4c(c3)COC4)CC2)nc2c(c1C)C(=O)NC2
2. Cc1cc2c(nc1N1CCC(Oc3ccc4c(c3)C[C@H](O)C4)CC1)CNC2=O (single isomer, unassigned) [Example 324B]
3. Cc1c(N2CCC(OC[C@@]3(C)CC3(F)F)CC2)nc2c(c1C)C(=O)NC2 (single isomer, unassigned) [Example 329A]

Result ::
[7.21, 7.55, 7.33]
